Test system: HEK-293T
experiment description: Multiplex assay against HEK293T
Assay type: toxicity, cell-based
experimental conditions: human, 24 h, 10 µM, compound concentration 10 uM, replicate 2
measured attribute: Population Mitochondria Different-Phenotype (%)

Cn1nc(C(=O)NCc2ccc(C(=O)O)cc2)cc1-c1ccc2[nH]ccc2c1 [BI 4395]    1%
Cc1ccc2nc(NCCN)c3ncc(C)n3c2c1.O=C(O)C(F)(F)F.O=C(O)C(F)(F)F    27%
CCOC(=O)c1c(C)[nH]c2ccc3c(c12)CN1CCc2cc(OC)ccc2C1O3 (configuration not stated)    92%

Param item = O=C(Nc1ccc(-n2nc(-c3cccnc3)cc2C(F)(F)F)cn1)c1ccc(-c2ccccc2)c(F)c1 [BI 2049] ; retrieve measured Population Mitochondria Different-Phenotype (%).
14%

And what about the molecule Cn1nc(C(F)(F)F)cc1-c1cnc(N2CCc3cc(S(=O)(=O)Nc4c(F)cc(Cl)cc4F)cc(N4CCCC4=O)c32)nc1 [TP-020] ?
0%

And what about the molecule `Cl.O=c1c2cccn2c2ccccc2n1CCCN1CCC(c2ccc(Cl)cc2)CC1` ?
96%

And what about the molecule `Cl.Oc1ccc2c3c1O[C@H]1c4[nH]c5c(c4C[C@@]4(O)[C@@H](C2)N(CC2CC2)CC[C@]314)C[C@@]1(O)[C@H]2Cc3ccc(O)c4c3[C@@]1(CCN2CC1CC1)[C@H]5O4` ?
17%

---

Test system: HEK-293T
experiment description: Multiplex assay against HEK293T
Type: toxicity, cell-based
experimental conditions: human, 24 h, 1 µM, compound concentration 1 uM, replicate 1
We begin with a simple list: items and their reported Population Normal (%).
Give just the numeric value; % need not be written.

CCN1CCN(Cc2ccc(Nc3ncc(F)c(-c4cc(F)c5nc(C)n(C(C)C)c5c4)n3)nc2)CC1.CS(=O)(=O)O    81
CN[C@@H]1C[C@H]2O[C@@](C)([C@@H]1OC)n1c3ccccc3c3c4c(c5c6ccccc6n2c5c31)C(=O)NC4    84
CCc1cccc(CC)c1NC(=O)c1nn(C)c2c1CCc1cnc(Nc3ccc(C(=O)NC4CCN(C)CC4)cc3OC(F)(F)F)nc1-2    89
CN1CCN(C(=O)C(C)(C)c2ccc(C(=O)Nc3cn4cc(-c5cc(C(C)(C)C)cc(C(C)(C)C)c5)ccc4n3)cc2)CC1    89
O=C(Nc1ccc(-n2nc(-c3cccnc3)cc2C(F)(F)F)cn1)c1ccc(-c2ccccc2)c(F)c1    73

Param item = `COc1ccc(S(=O)(=O)N(CCO)c2ccccc2CN(C)C/C=C/c2ccc(Cl)cc2)cc1.O=P(O)(O)O` ; retrieve measured Population Normal (%).
81

And what about the compound `CCc1cccc(CC)c1NC(=O)c1nn(C)c2c1CCc1cnc(Nc3ccc(N4CCN(C)CC4)cc3OC)nc1-2` ?
86

---

Tested on: HEK-293T
experiment description: Multiplex assay against HEK293T
Format: toxicity, cell-based
experimental conditions: human, 24 h, 1 µM, compound concentration 1 uM, replicate 2
Population Mitotic Cells (%) under 80% gets 1 (yes), anything at or over 80% gets 0 (no).

Completed entries (count: 2):
C=C1/C(=C\C=C2/CCC[C@]3(C)[C@@H]([C@H](C)/C=C/[C@H](C)C(C)C)CC[C@@H]23)C[C@@H](O)C[C@@H]1O    0 (no)
CCNc1cc(N[C@H]2CC[C@H](O)CC2)nc(Nc2ccc3c(ccn3Cc3ccccc3)c2)n1    0 (no)

Strictly below 80%: is that where Population Mitotic Cells (%) of `CCCS(=O)(=O)Nc1ccc(F)c(C(=O)c2c[nH]c3ncc(Cl)cc23)c1F` sits?
0 (no)

And what about the compound `O=C(Cc1ccc(-c2ccc(OCCN3CCOCC3)cc2)cn1)NCc1ccccc1` ?
1 (yes)

And what about the compound `NC(=O)c1cccc(-c2cc(Nc3ccc(OC(F)(F)F)cc3)ncn2)c1` ?
0 (no)

And what about the compound `Cl.Oc1ccc2c3c1O[C@H]1c4[nH]c5c(c4C[C@@]4(O)[C@@H](C2)N(CC2CC2)CC[C@]314)C[C@@]1(O)[C@H]2Cc3ccc(O)c4c3[C@@]1(CCN2CC1CC1)[C@H]5O4` ?
0 (no)

And what about the compound `O=C1N/C(=N/c2ccccc2F)S/C1=C\c1ccc(C(=O)O)cc1` ?
0 (no)

And what about the compound `COc1ccc(-c2ccc3c(N4CCOCC4)nc(N4C[C@@H](C)O[C@@H](C)C4)nc3n2)cc1CO` ?
0 (no)

And what about the compound `O=C(Nc1cccnn1)N1CCC(=Cc2cccc(Oc3ccc(C(F)(F)F)cn3)c2)CC1` ?
0 (no)

And what about the compound `Cl.O=c1c2cccn2c2ccccc2n1CCCN1CCC(c2ccc(Cl)cc2)CC1` ?
1 (yes)

And what about the compound `COc1cccc2cc(-c3nc([C@H]4CC[C@H](C(=O)O)CC4)n4ncnc(N)c34)[nH]c12` ?
0 (no)
